Measured melting point, listed per entry for reference.

| smilesRepresentation | melting point |
| --- | --- |
| COc1cnc(C(=O)Cc2c(Cl)cncc2Cl)cc1OC1CCCC1 | 132 °C |
| O=C1c2ccc3c4cccc5cccc(c6ccc(c2c36)C(=O)N1CCCCCO)c54 | 274 to 276 °C |
| CN1CCC(c2c[nH]c3ccc(O)cc23)CC1 | 234 to 237 °C |
| CS(=O)(=O)c1ccc(-c2cnn(CC(F)(F)F)c(=O)c2Oc2cccnc2)cc1 | 191 to 193 °C |
| Cc1oc(-c2ccccc2)nc1COc1ccc(COc2ncccc2C=CC(=O)O)cc1 | 174 to 175 °C |

Proceed to the following item.
Prompt: What value of measured melting point is listed for `CCOC(=O)C1=C(C)NC(C)=C(C(=O)OCC)C1c1ccccc1C=Cc1ccc(Cl)cc1` ?
Response: 178 to 181 °C

----------
measurementLabel: melting point

Check out these entries, answers already filled in.
| compound | melting point |
| --- | --- |
| CCCCCCCCCCCCCCCCCCCCCCSCCC(=O)NN | 106 °C |
| COC(C)c1ccc(OCCCN2CCC(c3noc4cc(F)ccc34)CC2)c(O)c1 (stereo unspecified) | 98 to 100 °C |
| CN(Cc1ccc(NC(=O)C2=Cc3cc(Br)ccc3CCC2)cc1)C1CCOCC1 | 116 to 121 °C |

Alright, here's another compound for you.
Prompt: Name the reported melting point value associated with the compound `CN(C)S(=O)(=O)n1cc(-c2ccccc2[N+](=O)[O-])nc1C#N`
Response: 111 to 114 °C

----------
Recorded melting point by entry

| compound | measurementLabel | observed |
| --- | --- | --- |
| C#CCNC1=Nc2c(c(C)nn2C)C(c2ccccc2)=NC1 | melting point | 193 to 195 °C |

Prompt: If you can, please state the reported melting point value of Cc1oc(=O)oc1CS[C@H](C)[C@](O)(Cn1cncn1)c1ccc(F)cc1F (racemic) .
Response: 173 to 174 °C

Prompt: What about this compound? Cn1c(=O)oc2cc3c(cc21)OCC31C(=O)Nc2ccccc21 (stereo not given)
Response: > 250 °C

Prompt: What do you get for `COC(=O)c1ccc(OCCCc2ccccc2)cc1O` ?
Response: 101 to 102 °C

Prompt: Input `CC(C)(O)c1ccnc(-c2ccc3nc(-c4n[nH]c5ccccc45)cn3c2)c1`
Response: 255 to 259 °C

Prompt: Another: `O=c1[nH]c2ncc(-c3ccc(-c4nc[nH]n4)nc3)nc2n1CC1CCOCC1`
Response: 353 to 356 °C

----------
measurementLabel: melting point

The following molecules have reported results that may help.
| molecule | observed |
| --- | --- |
| COc1ccc(C(=O)CCc2cccnc2)cc1 | 76 to 78 °C |
| Cc1ccc(C(Cl)=CC(=O)NC(Cc2ccccc2)C(=O)O)cc1 (stereo not given) | 168 to 170 °C |
| CCN(CC)C(=O)CCC(=O)Nc1ccc(C(=O)N2CCCCc3ccccc32)cc1 | 165 to 167 °C |

Prompt: Return reported melting point; argument: C=CC(=O)CC1CN=C(c2cc3cccc(N(C)S(=O)(=O)c4cccs4)c3[nH]2)S1 (stereo not given)
Response: 157 to 158 °C

Prompt: And then `O=C(CO/N=C/c1ccc([N+](=O)[O-])c(CO)c1)N1CCN(CC2CCCCC2)CC1` , what is it?
Response: 170 °C

Prompt: Another molecule to look at: `Nc1ccc(S(=O)(=O)NC(=S)NC23CC4CC(CC(C4)C2)C3)cc1`
Response: 176 to 179 °C

Prompt: Continue with `Cc1cc(-c2ccc(Cl)cc2)nn2c(C)nnc12`
Response: 209 to 212 °C

----------
measurementLabel: melting point

| compound | melting point |
| --- | --- |
| CC(C)(C)c1cc(CCCO)cc(C(C)(C)C)c1O | 67.5 to 69 °C |
| N#CC1(c2ccccc2Oc2ccc(Cl)cc2)CCNCC1 | 128 to 130 °C |
| CCOC(=O)c1cn2c(n1)CN=C(c1ccccn1)c1cc(Br)ccc1-2 | 227 to 230 °C |
| CN(C)Cc1ccc(NC(=O)Nc2ccc(Oc3cc(Cl)ncn3)cc2)cc1C(F)(F)F | 98 to 105 °C |
| O=C(c1ccccc1C(F)(F)F)N1CCCN(CC2=Nc3cccc4c(=O)[nH]nc(c34)N2)CC1 | 140 to 142 °C |
| CCCCCCCCCCCCCCOc1ccc(OCc2ccccc2)c(C(=O)N(CC(=O)O)CC(=O)O)c1 | 71 to 74 °C |
| COc1ccc2c(c1)CCC1C2CCC2(C)C(=O)CC(C)C12 (configuration not stated) | 127 to 129 °C |
| [N-]=[N+]=NS(=O)(=O)c1ccccc1[N+](=O)[O-] | 73 to 74 °C |

Okay, now this compound:
Prompt: I would be grateful if you could share the reported melting point for CC(C)NC(=O)C(Cc1ccccc1)NC(=O)Nc1n[nH]c(=S)s1 (configuration not stated) .
Response: 206 to 211 °C

----------
Item-by-item account of melting point

| molecule | observed |
| --- | --- |
| CN(CCO)c1cc2c(=O)n(NS(C)(=O)=O)c(=O)[nH]c2cc1C(F)(F)F | 220 to 224 °C |

Prompt: For the molecule Cn1c(COc2ccc(CC3SC(=O)NC3=O)cc2)nc2cc(C(F)(F)F)cnc21 (configuration not stated) , what melting point is on record?
Response: 212 to 214 °C

Prompt: Then `CC(=O)c1ccc(NC(=O)N2CCN(c3ncnc4c(Cl)cccc34)CC2)cc1` ?
Response: 208 to 209 °C

Prompt: Request: COCC1COc2cc3ncnc(Nc4cccc(I)c4)c3cc2O1 (configuration not stated)
Response: 175 to 177 °C

Prompt: // repeat for CC(=O)/C=C1/C(=O)N(c2ccccc2)C1c1ccccc1 (configuration not stated) and report
Response: 158 °C

Prompt: Subsequent entry: O=S1N=C(NCCCOc2cccc(CN3CCCCC3)c2)C(NCc2ccccn2)=N1 (configuration not stated)
Response: 140 to 143 °C

Prompt: Query CC(=O)OC1CCN(C2c3cc4nonc4cc3OC(C)(C)C2O)C(=O)C1 (configuration not stated) next
Response: 204 to 206 °C

Prompt: Moving on to the next molecule: CCC1(C)CCCNC1=O (configuration not stated)
Response: 67 to 69 °C

----------
melting point listing for selected molecules.

Prompt: Item under review: `CS(=O)(=O)C(=C1CN(C(c2ccccc2)c2ccccc2)C1)c1cc(F)cc(F)c1` . Reported melting point?
Response: 172 °C

Prompt: Same question for Cc1oc(-c2ccccc2)nc1COc1cccc(CCCC2OC(=O)NC2=O)c1 (stereo not drawn) please.
Response: 134 to 135 °C

Prompt: Item: `O=C(c1cc2cc(OCc3ccccc3)ccc2[nH]1)C12CC3CC(CC(C3)C1)C2`
Response: 189 to 191 °C

Prompt: Then what about the molecule OC1CSC(Oc2ccc(-c3ccnc(Cl)c3)nc2)C(O)C1O (stereo not drawn) ?
Response: 179 °C

Prompt: Try this molecule next: `Cc1cc(Cl)nc(S(C)(=O)=O)n1`
Response: 72 °C

----------
The reader will find reported melting point values listed item by item below.

Answered examples (5):
| compound | melting point |
| --- | --- |
| Cc1cc(-c2cc(C(F)F)n3ncc(C(=O)Nc4cccc(S(=O)(=O)N5CCN(C)CC5)c4)c3n2)ccc1C(F)(F)F | 198 °C |
| CC(C)(C)c1nc2ccc(Cl)nn2n1 | 128 to 130 °C |
| c1ccc(-c2ncc(N3CCCC3CCCCOC3CCCCO3)nc2-c2ccccc2)cc1 (centres undefined) | 94 to 96 °C |
| Cc1ccccc1-c1cc(N2CCC(O)CC2)ncc1C(=O)N(C)Cc1cc(C(F)(F)F)cc(C(F)(F)F)c1 | 150 to 152 °C |
| CCCc1nc2c(N)nc3cc(OCCOCCNS(C)(=O)=O)ccc3c2s1 | 134 to 137 °C |

Prompt: Given `Nc1cc(Cl)cc(Cl)c1C(=O)NCc1ccccc1Br` , state its recorded melting point.
Response: 163 to 167 °C

Prompt: And what about the compound `Cc1ccc(-c2cc(Cl)c3ccc(C)cc3n2)cc1` ?
Response: 110 to 111 °C

Prompt: Another compound: `CCN(CC)CCOc1ccc(-c2nnc(CSCCOc3ccccc3)o2)cc1`
Response: 32 to 35 °C

Prompt: # repeat for `COC(=O)c1cc(C(=O)NCC(=O)O)cc([N+](=O)[O-])c1`
Response: 142 to 143 °C

----------
Listing: melting point of selected compounds

Some compounds with known melting point results, for comparison:
| compound | observed |
| --- | --- |
| Nc1cc(C(=O)c2ccccc2)ccc1Cl | 91.9 °C |
| CC(=O)Nc1cnc(Br)c(N)n1 | 218 to 221 °C |
| CCOC(=O)NNC(C)=S | 54 to 57.5 °C |
| CCc1nc2c([C@H](O)CO)cccc2cc1C | 66 °C |
| CCCOc1cc(CCCOc2nn(Cc3ccccc3)cc2CC(=O)O)n(Cc2ccc(F)cc2F)n1 | 94 to 95 °C |

Prompt: // returns reported melting point for input `CN(C(F)F)S(=O)(=O)c1ccccc1S(N)(=O)=O`
Response: 128 °C

Prompt: Moving on to the next compound: COC(=O)c1cc(F)c(F)c2c1NC(C)C2 (stereo unspecified)
Response: 50 to 52 °C

Prompt: Try this compound next: `COc1ccc(C(=O)Nc2c(Cl)cncc2Cl)c2cc(C(=O)N3CCN(C)CC3)oc12`
Response: 224 to 225 °C

Prompt: What about this compound? `CCOC(=O)c1c[nH]c2nc(NCc3ccccc3)nn2c1=O`
Response: 275 to 278 °C

Prompt: Next entry: `N#CCC(=O)c1cccn1Cc1ccccc1`
Response: 119 to 120 °C

Prompt: Similarly, C[C@H]1CN(c2c(F)c(N)c3c(=O)c(C(=O)O)cn(C4CC4)c3c2F)C[C@H]1CN (relative stereo) ?
Response: 221 to 223 °C

# credit: a melting point compilation (Tetko et al.; mined from patent text by program, amines drawn as free bases though some values may be those of a salt)
